B1: TPR 5TU (parent)
chain: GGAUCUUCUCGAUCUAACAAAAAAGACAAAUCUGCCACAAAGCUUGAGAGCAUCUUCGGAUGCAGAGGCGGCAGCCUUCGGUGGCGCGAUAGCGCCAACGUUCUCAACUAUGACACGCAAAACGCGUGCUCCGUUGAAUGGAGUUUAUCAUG

# Variants of: B1
# assay details: polymerase ribozyme fitness, log enrichment relative to wild type (log ratio); higher = more active; in vitro selection for triplet polymerase activity
This sample holds only a part of the variants without activity.
property measured: polymerase ribozyme fitness (log ratio)

Solved cases below.
1) A20U A23C C79U G94C C95U U148A
≤ -4.2
2) G84U C93G
≤ -4.2
3) A12U C14A A24U U56A C85U C99U G141A
≤ -4.2
4) C51U A91G G100A A110U A121U
≤ -4.2
5) G88A U127G C129U
≤ -4.2

In the following, a different variant is considered.
Challenge: Endpoint output: polymerase ribozyme fitness (log ratio) of A23G A29U U61G C99U . Value?
Response given: ≤ -4.2
